# MEASUREMENT DESCRIPTION: Colour of solution by visible spectrophotometry on storage (Example 3)
# Format: physicochemical
# CONDITION SUMMARY: 1 month, 40° C./75% RH; 5% w/v solution in water
Below, each entry is listed with its recorded Colour.
# output: bare number, implied unit Abs@420 nm

# count of solved cases: 3
{"COMPOUND": "Br.CN1CC[C@]23c4c5ccc(O)c4O[C@H]2[C@@H](O[C@@H]2O[C@H](C(=O)O)[C@@H](O)[C@H](O)[C@H]2O)C=C[C@H]3[C@H]1C5 [Morphine-6-glucuronide hydrobromide]", "Colour [Abs@420 nm]": 0.064}
{"COMPOUND": "CN1CC[C@]23c4c5ccc(O)c4O[C@H]2[C@@H](O[C@@H]2O[C@H](C(=O)O)[C@@H](O)[C@H](O)[C@H]2O)C=C[C@H]3[C@H]1C5.Cl [Morphine-6-glucuronide hydrochloride]", "Colour [Abs@420 nm]": 0.444}
{"COMPOUND": "CN1CC[C@]23c4c5ccc(O)c4O[C@H]2[C@@H](O[C@@H]2O[C@H](C(=O)O)[C@@H](O)[C@H](O)[C@H]2O)C=C[C@H]3[C@H]1C5 [Morphine-6-glucuronide base, morphine-6-β-D-glucuronide]", "Colour [Abs@420 nm]": 0.182}

Which Colour value is on record for CN1CCC23c4c5ccc(O)c4OC2C(OC2OC(C(=O)O)C(O)C(O)C2O)C=CC3C1C5.O=P(O)(O)O (stereo not shown) [Morphine-6-glucuronide phosphate] ?
0.308

Which Colour value is on record for CN1CCC23c4c5ccc(O)c4OC2C(OC2OC(C(=O)O)C(O)C(O)C2O)C=CC3C1C5.CN1CCC23c4c5ccc(O)c4OC2C(OC2OC(C(=O)O)C(O)C(O)C2O)C=CC3C1C5.O=S(=O)(O)O (stereo not shown) [Morphine-6-glucuronide sulphate] ?
0.430

Entry CN1CCC23c4c5ccc(O)c4OC2C(OC2OC(C(=O)O)C(O)C(O)C2O)C=CC3C1C5.CN1CCC23c4c5ccc(O)c4OC2C(OC2OC(C(=O)O)C(O)C(O)C2O)C=CC3C1C5.O=C(O)C=CC(=O)O (stereo not shown) [Morphine-6-glucuronide fumarate] : reported Colour = ?
0.264

Value lookup for Colour; key = CN1CCC23c4c5ccc(O)c4OC2C(OC2OC(C(=O)O)C(O)C(O)C2O)C=CC3C1C5.CN1CCC23c4c5ccc(O)c4OC2C(OC2OC(C(=O)O)C(O)C(O)C2O)C=CC3C1C5.O=C(O)C=CC(=O)O (stereo not shown) [Morphine-6-glucuronide maleate]
0.297

---

# MEASUREMENT DESCRIPTION: Stability indicating HPLC assay and related substances on storage (Example 3)
# Type: physicochemical
# CONDITION SUMMARY: Initial
ASSAY ENDPOINT: Total Related Substances (%)
The reply should contain only the number, in %.

{"COMPOUND": "Br.CN1CC[C@]23c4c5ccc(O)c4O[C@H]2[C@@H](O[C@@H]2O[C@H](C(=O)O)[C@@H](O)[C@H](O)[C@H]2O)C=C[C@H]3[C@H]1C5 [Morphine-6-glucuronide hydrobromide]", "MEAS VALUE": 0.94}
{"COMPOUND": "CN1CCC23c4c5ccc(O)c4OC2C(OC2OC(C(=O)O)C(O)C(O)C2O)C=CC3C1C5.CN1CCC23c4c5ccc(O)c4OC2C(OC2OC(C(=O)O)C(O)C(O)C2O)C=CC3C1C5.O=C(O)C=CC(=O)O (stereo not shown) [Morphine-6-glucuronide maleate]", "MEAS VALUE": 0.85}
{"COMPOUND": "CN1CC[C@]23c4c5ccc(O)c4O[C@H]2[C@@H](O[C@@H]2O[C@H](C(=O)O)[C@@H](O)[C@H](O)[C@H]2O)C=C[C@H]3[C@H]1C5 [Morphine-6-glucuronide base, morphine-6-β-D-glucuronide]", "MEAS VALUE": 0.98}
{"COMPOUND": "CN1CCC23c4c5ccc(O)c4OC2C(OC2OC(C(=O)O)C(O)C(O)C2O)C=CC3C1C5.CN1CCC23c4c5ccc(O)c4OC2C(OC2OC(C(=O)O)C(O)C(O)C2O)C=CC3C1C5.O=S(=O)(O)O (stereo not shown) [Morphine-6-glucuronide sulphate]", "MEAS VALUE": 1.72}
{"COMPOUND": "CN1CCC23c4c5ccc(O)c4OC2C(OC2OC(C(=O)O)C(O)C(O)C2O)C=CC3C1C5.O=P(O)(O)O (stereo not shown) [Morphine-6-glucuronide phosphate]", "MEAS VALUE": 0.86}
{"COMPOUND": "CN1CC[C@]23c4c5ccc(O)c4O[C@H]2[C@@H](O[C@@H]2O[C@H](C(=O)O)[C@@H](O)[C@H](O)[C@H]2O)C=C[C@H]3[C@H]1C5.Cl [Morphine-6-glucuronide hydrochloride]", "MEAS VALUE": 1.24}

Param item = CN1CCC23c4c5ccc(O)c4OC2C(OC2OC(C(=O)O)C(O)C(O)C2O)C=CC3C1C5.CN1CCC23c4c5ccc(O)c4OC2C(OC2OC(C(=O)O)C(O)C(O)C2O)C=CC3C1C5.O=C(O)C=CC(=O)O (stereo not shown) [Morphine-6-glucuronide fumarate] ; retrieve measured Total Related Substances.
0.95
